Could you please report measured Fp (flow point), amount of ester oil for the items listed next?
assay: Pigments dispersion: wet point and flow point; type: physicochemical; settings: grams per 100 g of pigment
Numbers only, in g.

Sample records with Fp (flow point), amount of ester oil:
{"molecule": "CCCCCCCCC(=O)OCC(COC(=O)CCCCCCCC)(COC(=O)CCCCCCCC)COC(=O)CCCCCCCC [Pentaerythritol tetrapelargonate]", "quantity-unit": "g", "Fp (flow point), amount of ester oil": 132.00}
{"molecule": "CC(C)CCCCCCOC(=O)CCCCCC(C)C [Isononyl Isononanoate, reference compound]", "quantity-unit": "g", "Fp (flow point), amount of ester oil": 145.00}
{"molecule": "CCCCCCCCC(=O)OCC(C)(C)COC(=O)CCCCCCCC [Neopentyl glycol dipelargonate]", "quantity-unit": "g", "Fp (flow point), amount of ester oil": 166.00}

Now examine the next entry.
Could you tell me which Fp (flow point), amount of ester oil is on file for CCCCCCCCC(=O)OCC(COC(=O)CCCCCCCC)OC(=O)CCCCCCCC [Glycerol tripelargonate] ?
100.00

====

Could you please report measured Wp (wet point), amount of ester oil for the items listed next?
experiment: Pigments dispersion: wet point and flow point; format: physicochemical; conditions: grams per 100 g of pigment

{"compound": "CCCCCCCCC(=O)OCC(C)(C)COC(=O)CCCCCCCC [Neopentyl glycol dipelargonate]", "reported-result": "61.00 g"}

// input: 3 compounds below; output: Wp (wet point), amount of ester oil for each
1. CCCCCCCCC(=O)OCC(COC(=O)CCCCCCCC)OC(=O)CCCCCCCC [Glycerol tripelargonate]
2. CCCCCCCCC(=O)OCC(COC(=O)CCCCCCCC)(COC(=O)CCCCCCCC)COC(=O)CCCCCCCC [Pentaerythritol tetrapelargonate]
3. CC(C)CCCCCCOC(=O)CCCCCC(C)C [Isononyl Isononanoate, reference compound]

["60.00 g", "62.00 g", "50.00 g"]

====

assay: UV filters dispersion (dispersibility of solid UV filter in ester oils); format: physicochemical; details: 10% TiO2, 24 hours at 25° C.
property-measured: Filters dispersion t24, 10%

{"compound": "CCCCCCCCC(=O)OCC(COC(=O)CCCCCCCC)OC(=O)CCCCCCCC [Glycerol tripelargonate]", "reported-result": "S/D"}
{"compound": "CCCCCCCCC(=O)OCC(C)(C)COC(=O)CCCCCCCC [Neopentyl glycol dipelargonate]", "reported-result": "S/D"}
{"compound": "CC(C)CCCCCCOC(=O)CCCCCC(C)C [Isononyl Isononanoate, reference compound]", "reported-result": "S"}
{"compound": "CCCCCCCCC(=O)OCC(COC(=O)CCCCCCCC)(COC(=O)CCCCCCCC)COC(=O)CCCCCCCC [Pentaerythritol tetrapelargonate]", "reported-result": "D"}

====

test: UV filters dispersion (dispersibility of solid UV filter in ester oils); type: physicochemical; parameters: key: D=homogeneous dispersion; S=sediment deposit; conditions: 1% TiO2, 24 hours at 25° C.

{"compound": "CCCCCCCCC(=O)OCC(COC(=O)CCCCCCCC)(COC(=O)CCCCCCCC)COC(=O)CCCCCCCC [Pentaerythritol tetrapelargonate]", "Filters dispersion t24, 1%": "D"}
{"compound": "CCCCCCCCC(=O)OCC(COC(=O)CCCCCCCC)OC(=O)CCCCCCCC [Glycerol tripelargonate]", "Filters dispersion t24, 1%": "D"}
{"compound": "CCCCCCCCC(=O)OCC(C)(C)COC(=O)CCCCCCCC [Neopentyl glycol dipelargonate]", "Filters dispersion t24, 1%": "S/D"}
{"compound": "CC(C)CCCCCCOC(=O)CCCCCC(C)C [Isononyl Isononanoate, reference compound]", "Filters dispersion t24, 1%": "S"}
